Biological target: KIAA 1361 (baculovirus expressed human KIAA 1361 kinase domain 2-322) (Homo sapiens, UniProt Q7L7X3)
Construct: human KIAA 1361 kinase domain 2-322; made in house
Sequence (Q7L7X3 2-322): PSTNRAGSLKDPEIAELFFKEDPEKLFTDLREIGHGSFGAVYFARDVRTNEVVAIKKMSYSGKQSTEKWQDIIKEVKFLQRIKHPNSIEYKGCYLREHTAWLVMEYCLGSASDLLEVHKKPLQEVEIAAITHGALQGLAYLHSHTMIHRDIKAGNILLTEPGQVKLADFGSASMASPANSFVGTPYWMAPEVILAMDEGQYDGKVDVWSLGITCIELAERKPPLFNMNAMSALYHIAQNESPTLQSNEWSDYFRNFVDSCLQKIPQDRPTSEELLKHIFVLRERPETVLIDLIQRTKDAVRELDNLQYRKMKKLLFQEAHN
Assay: KIAA 1361 Luciferase-Coupled Chemiluminescent Kinase assay (LCCA)
Format: biochemical
Conditions: 2 μM ATP, 10 μM MBP, 12 nM KIAA 1361, 2 hours; read-out: KIAA1361 inhibition IC50
pIC50: −log10 of the molar value.
Known pIC50 of a selection of compounds

[
  {
    "compound": "O=C(CNC(=O)c1ccc(-c2ccccc2)cc1)NC1CCCc2ccccc21 (centres unmarked) [Entry 43]",
    "pIC50": "> 7.30"
  },
  {
    "compound": "COc1ccc2nc(NC(=O)CCCNC(=O)Cn3cnc4sc5c(c4c3=O)CCCC5)sc2c1 [Entry 23]",
    "pIC50": "6.30 to 7.30"
  },
  {
    "compound": "O=C(CC(NC(=O)c1ccccc1)c1ccccc1)NCC(=O)Nc1nc2ccccc2s1 (centres unmarked) [Entry 90]",
    "pIC50": "6.30 to 7.30"
  },
  {
    "compound": "O=C(CNC(=O)c1ccc2c(c1)CCCC2)NC1CCCc2ccccc21 (centres unmarked) [Entry 82]",
    "pIC50": "< 5.30"
  },
  {
    "compound": "CCCCCOc1ccc(C(=O)NCC(=O)NC2CCCc3ccccc32)cc1 (centres unmarked) [Entry 1]",
    "pIC50": "> 7.30"
  }
]

---

The following compounds have recorded IC50 on UniProtKB Q9UL54.
Sequence (Q9UL54 whole entry): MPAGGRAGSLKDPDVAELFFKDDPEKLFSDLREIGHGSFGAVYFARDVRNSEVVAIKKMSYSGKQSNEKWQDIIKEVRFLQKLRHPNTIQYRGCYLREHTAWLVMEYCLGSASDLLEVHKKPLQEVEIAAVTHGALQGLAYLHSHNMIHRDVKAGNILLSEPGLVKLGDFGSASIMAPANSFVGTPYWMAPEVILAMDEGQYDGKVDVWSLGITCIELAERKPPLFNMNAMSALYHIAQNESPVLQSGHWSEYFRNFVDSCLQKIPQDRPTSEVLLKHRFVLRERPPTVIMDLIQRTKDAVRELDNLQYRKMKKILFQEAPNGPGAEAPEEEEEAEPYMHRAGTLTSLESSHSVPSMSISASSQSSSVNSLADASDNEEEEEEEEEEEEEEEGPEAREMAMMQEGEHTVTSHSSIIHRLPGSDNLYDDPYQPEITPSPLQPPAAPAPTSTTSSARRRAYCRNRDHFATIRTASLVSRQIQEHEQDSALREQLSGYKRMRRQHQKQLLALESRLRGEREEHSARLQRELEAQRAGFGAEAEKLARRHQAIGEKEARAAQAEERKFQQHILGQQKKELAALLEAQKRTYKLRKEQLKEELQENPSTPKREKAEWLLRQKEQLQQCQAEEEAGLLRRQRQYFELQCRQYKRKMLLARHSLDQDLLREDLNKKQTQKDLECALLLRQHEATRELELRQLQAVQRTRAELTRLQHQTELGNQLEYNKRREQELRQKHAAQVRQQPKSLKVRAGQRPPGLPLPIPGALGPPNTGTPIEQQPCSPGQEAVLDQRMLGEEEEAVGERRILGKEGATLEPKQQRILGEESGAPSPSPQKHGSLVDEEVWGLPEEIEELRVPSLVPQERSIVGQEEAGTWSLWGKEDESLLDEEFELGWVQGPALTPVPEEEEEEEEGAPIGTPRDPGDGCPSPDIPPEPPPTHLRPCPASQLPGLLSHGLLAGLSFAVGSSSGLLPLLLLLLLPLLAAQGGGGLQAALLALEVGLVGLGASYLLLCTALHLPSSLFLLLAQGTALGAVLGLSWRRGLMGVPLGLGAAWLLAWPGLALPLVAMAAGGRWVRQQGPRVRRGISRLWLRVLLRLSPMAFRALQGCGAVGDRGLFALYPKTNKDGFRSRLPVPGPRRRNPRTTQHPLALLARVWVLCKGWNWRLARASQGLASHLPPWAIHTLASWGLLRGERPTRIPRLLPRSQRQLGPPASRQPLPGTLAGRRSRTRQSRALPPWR

[
  {
    "compound": "O=C(CNC(=O)c1ccc2ncccc2c1)Nc1cccc2c1CCCC2 [Entry 86]",
    "IC50": "> 5 µM"
  },
  {
    "compound": "CCc1ccc(-c2ccc(C(=O)NCC(=O)NC3CN(C(=O)OC(C)(C)C)Cc4ccccc43)cc2)cc1 (stereo not drawn) [Entry 95]",
    "IC50": "> 5 µM"
  },
  {
    "compound": "CCCCOc1ccc(C(=O)NC(C)C(=O)NC2CCc3ccccc3C2)cc1 (stereo not drawn) [Entry 18]",
    "IC50": "0.5 to 5 µM"
  },
  {
    "compound": "CCCCCCCc1ccc(C(=O)NCC(=O)NC2CCCc3ccccc32)cc1 (stereo not drawn) [Entry 12]",
    "IC50": "0.5 to 5 µM"
  },
  {
    "compound": "O=C(CNC(=O)c1ccc(C2CCCCC2)cc1)NC1CCCc2ccccc21 (stereo not drawn) [Entry 50]",
    "IC50": "0.05 to 0.5 µM"
  },
  {
    "compound": "CCc1ccc(-c2ccc(C(=O)N(C)CC(=O)NC3CCCc4ccccc43)cc2)cc1 (stereo not drawn) [Entry 66]",
    "IC50": "> 5 µM"
  },
  {
    "compound": "O=C(CNC(=O)c1ccc(N2CCCCC2)cc1)NC1CCCc2ccccc21 (stereo not drawn) [Entry 77]",
    "IC50": "0.5 to 5 µM"
  },
  {
    "compound": "O=C(COc1ccc(OC(F)(F)F)cc1)NCC(=O)NC1CCCc2ccccc21 (stereo not drawn) [Entry 31]",
    "IC50": "0.5 to 5 µM"
  },
  {
    "compound": "O=C(CNC(=O)c1ccc(N2CCCCC2)cc1)Nc1cccc2c1CCCC2 [Entry 89]",
    "IC50": "> 5 µM"
  },
  {
    "compound": "CCc1ccc(-c2ccc(C(=O)NCC(=O)N3Cc4ccccc4C3)cc2)cc1 [Entry 57]",
    "IC50": "> 5 µM"
  },
  {
    "compound": "COc1ccc2nc(NC(=O)CNC(=O)Cn3cnc4sc(C)c(C)c4c3=O)sc2c1 [Entry 40]",
    "IC50": "0.5 to 5 µM"
  },
  {
    "compound": "CCc1ccc(-c2ccc(C(=O)NCC(=O)NC3CCCCC3)cc2)cc1 [Entry 53]",
    "IC50": "> 5 µM"
  },
  {
    "compound": "O=C(CNC(=O)c1ccc2c(c1)CCCC2)NC1CCCc2ccccc21 (stereo not drawn) [Entry 82]",
    "IC50": "> 5 µM"
  },
  {
    "compound": "CCCCCCOc1ccc(C(=O)NC(C)C(=O)NC2CCc3ccccc3C2)cc1 (stereo not drawn) [Entry 36]",
    "IC50": "> 5 µM"
  },
  {
    "compound": "CC(NC(=O)c1ccc(OCc2ccccc2)cc1)C(=O)NC1CCc2ccccc2C1 (stereo not drawn) [Entry 19]",
    "IC50": "0.5 to 5 µM"
  },
  {
    "compound": "O=C(CC(NC(=O)c1ccccc1)c1ccccc1)NCC(=O)Nc1nc2ccccc2s1 (stereo not drawn) [Entry 90]",
    "IC50": "0.05 to 0.5 µM"
  },
  {
    "compound": "O=C(CC(NC(=O)c1ccccc1)c1ccccc1)NCC(=O)NC1CCCc2ccccc21 (stereo not drawn) [Entry 81]",
    "IC50": "> 5 µM"
  },
  {
    "compound": "O=C(CNC(=O)c1ccc(Oc2ccccc2)cc1)NC1CCCc2ccccc21 (stereo not drawn) [Entry 49]",
    "IC50": "0.05 to 0.5 µM"
  }
]
